- experimental system: 5-HT2A (Homo sapiens)
- Construct: expressed in transfected cells; host or cells: HEK293T
- Sequence (P28223 whole entry): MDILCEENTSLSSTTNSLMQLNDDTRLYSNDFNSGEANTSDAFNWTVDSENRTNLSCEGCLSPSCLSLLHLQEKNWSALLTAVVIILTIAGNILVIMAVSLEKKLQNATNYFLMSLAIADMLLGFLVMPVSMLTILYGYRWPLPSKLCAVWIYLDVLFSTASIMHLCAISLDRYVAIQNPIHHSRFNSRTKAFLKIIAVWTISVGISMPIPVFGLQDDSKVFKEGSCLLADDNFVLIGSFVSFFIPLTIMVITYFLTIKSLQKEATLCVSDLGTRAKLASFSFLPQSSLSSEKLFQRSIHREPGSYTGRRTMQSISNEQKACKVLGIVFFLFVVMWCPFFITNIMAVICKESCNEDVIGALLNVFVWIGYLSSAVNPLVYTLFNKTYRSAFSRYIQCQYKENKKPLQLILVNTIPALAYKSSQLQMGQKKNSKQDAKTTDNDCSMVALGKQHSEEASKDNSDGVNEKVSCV
- procedure details: Predicted hallucinogenic or non-hallucinogenic plastogenic effect based on 5-HT2A agonist efficacy
- condition summary: hallucinogenic (Hall) or non-hallucinogenic (N-Hall) plastogenic effect predicted from level of 5-HT2A agonist efficacy
measured endpoint: Hall or N-Hall?

// known answers, use as guide
compound | Hall or N-Hall?
C1=C(c2csc3ccccc23)CNC1 | Hall
Fc1cnc2[nH]cc(C3=CCNC3)c2c1 | Hall
C1=C(c2c[nH]c3ncccc23)CNC1 | N-Hall
Cl.c1ccc2c(C3CCNC3)csc2c1 (centres unmarked) | N-Hall

Now consider the entry below.
Task: GET /values?readout=Hall or N-Hall?&item= CN1CC(c2csc3ccccc23)C1.Cl
Output: N-Hall

====

- experimental system: 5-HT2C (Homo sapiens)
- Sequence (P28335 33-458): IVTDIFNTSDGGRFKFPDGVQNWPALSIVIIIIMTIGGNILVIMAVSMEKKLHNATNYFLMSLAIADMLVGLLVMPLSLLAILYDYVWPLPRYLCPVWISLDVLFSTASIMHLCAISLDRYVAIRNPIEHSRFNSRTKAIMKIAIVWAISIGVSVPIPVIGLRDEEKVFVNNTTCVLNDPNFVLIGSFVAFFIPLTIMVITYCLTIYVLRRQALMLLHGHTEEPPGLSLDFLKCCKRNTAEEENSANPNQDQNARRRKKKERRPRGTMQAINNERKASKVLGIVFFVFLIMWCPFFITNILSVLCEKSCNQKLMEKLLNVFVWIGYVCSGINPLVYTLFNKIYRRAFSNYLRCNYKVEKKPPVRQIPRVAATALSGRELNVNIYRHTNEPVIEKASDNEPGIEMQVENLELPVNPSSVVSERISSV
- procedure details: Gq activation via Gq/γ1 dissociation BRET, 5-HT2C
- Format: cell-based
- Parameters: expressed in transfected cells; host or cells: HEK293T
- condition summary: HEK-293T, read-out: 5-HT2C Emax (%)
measured endpoint: Emax

// known answers, use as guide
molecule | Emax
CN1CC=C(c2csc3cc(F)ccc23)C1 | 50 to 70%
Cl.c1ccc2c(C3CCNC3)csc2c1 (stereo not shown) | > 70%
CN1CC=C(c2csc3ccccc23)C1 | > 70%
Fc1cnc2[nH]cc(C3=CCNC3)c2c1 | > 70%
CN1CC(c2csc3ccccc23)C1.Cl | > 70%
C1=C(c2csc3ccccc23)CNC1 | > 70%

Now consider the entry below.
Task: GET /values?readout=Emax&item= C1=C(c2c[nH]c3ncccc23)CNC1
Output: < 50%

====

- experimental system: 5-HT2A (Homo sapiens)
- procedure details: Gq activation via Gq/γ1 dissociation BRET, 5-HT2A
- condition summary: HEK293T cells, Gq dissociation BRET2, 1 hour at 37° C.
We begin with a simple list: items and their reported EC50.

// known answers, use as guide
molecule | result
C1=C(c2csc3ccccc23)CNC1 | 10 to 100 nM
Cl.c1ccc2c(C3CCNC3)csc2c1 (stereo not drawn) | 100 to 1000 nM
CN1CC=C(c2csc3ccccc23)C1 | 10 to 100 nM
CN1CC=C(c2csc3cc(F)ccc23)C1 | 100 to 1000 nM
Fc1cnc2[nH]cc(C3=CCNC3)c2c1 | 100 to 1000 nM

Now consider the entry below.
Task: GET /values?readout=EC50&item= CN1CC(c2csc3ccccc23)C1.Cl
Output: > 1000 nM
